Record form. Attribute: Percent Effect. Fill in for each entry.
test system: Plasmodium falciparum; test: Plasmodium falciparum sporozoite viability assay; assay type: functional, organism-based; also: in the data most compounds retested in dose-response had high values
About 290 (0.85%) of roughly 34,000 compounds showed an effect of 50% or more. The list comes from a sample in which strong results are over-represented; it also holds close analogues and randomly drawn compounds.
// units = %; emit number, no label

Req: Quick one: Percent Effect for CC(O)CN1CCC(CNCc2ccc(C(N)=O)cc2)CC1 (stereo unspecified) ?
Resp: 0.9015

Req: Quick one: Percent Effect for CCOCC1CCCN(C(=O)NCc2ccc(-c3ccn[nH]3)cc2)C1 (stereo unspecified) ?
Resp: 14.81

Req: Quick one: Percent Effect for CCc1ncnc2c1CCN(S(=O)(=O)c1ccccc1)CC2 ?
Resp: 11.48

Req: Quick one: Percent Effect for OC1CCCOC12CCN(CCCOc1ccccc1F)CC2 (stereo unspecified) ?
Resp: 2.153

Req: Quick one: Percent Effect for O=C(COCc1ccccc1Cl)N1CCN(c2ncccn2)CC1 ?
Resp: 3.259

Req: Quick one: Percent Effect for Cc1nc(-c2nnc[nH]2)sc1C(=O)N1CCCC1c1ccsc1 (stereo unspecified) ?
Resp: 7.018

Req: Quick one: Percent Effect for CCn1cc(CN2CCCN(C(=O)c3ccccc3OC)CC2)cn1 ?
Resp: 5.544

Req: Quick one: Percent Effect for COc1ccc(CC(=O)N2CCCC(n3cccn3)C2)cc1F (stereo unspecified) ?
Resp: 5.192

Req: Quick one: Percent Effect for Cc1nn(C)c(Cl)c1C1CCCN1C(=O)c1cc(C2CC2)on1 (stereo unspecified) ?
Resp: 6.06

Req: Quick one: Percent Effect for Cc1nccc([C@@H]2C[C@H]3CN(S(=O)(=O)c4ccccc4)C[C@H]3O2)n1 ?
Resp: -0.614

Req: Quick one: Percent Effect for NC(=O)CC1CCN(C(=O)NCc2ccc(-c3ccn[nH]3)cc2)CC1 ?
Resp: 2.866
